Test system: Shewanella sp. (TC11)
Experiment: Anti-adhesion test, strain TC11
Format: cell-based
Conditions: 15 h, 200 μM, strain TC11, read-out: % of adhesion at 200 μM, TC11
Experimental: Bacterial strains were grown on Väätänen nine-salts solution (VNSS). When the stationary phase was reached, the bacterial suspension was centrifuged. […] After incubation during an optimized adhesion time (moderately 15 h), non-adhered bacteria were eliminated and adhered cells were quantified after SYTO 61 (1 μM) staining. A percentage of inhibition was calculated per well. […] EC50 values were then calculated for each compound. […]
Each record gets a class by activity at 200 µM: LOW (below 7%), MEDIUM (7% to below 20%), HIGH (20% or more)

Categorize the following entry: `CN(C)CCCOc1ccc(CCn2cc(-c3ccc(-c4cn(CCc5ccc(OCCCN(C)C)cc5)nn4)cc3)nn2)cc1`
HIGH

Categorize the following entry: `COc1ccc(Cn2cc(-c3ccc(-c4cn(Cc5ccc(OC)c(Br)c5)nn4)cc3)nn2)cc1Br`
MEDIUM

Categorize the following entry: `CN(C)CCOc1ccc(CCn2cc(-c3ccc(-c4cn(CCc5ccc(OCCN(C)C)c(Cl)c5)nn4)cc3)nn2)cc1Cl`
HIGH

Categorize the following entry: `CN(C)CCCOc1ccc(-n2cc(-c3ccc(-c4cn(-c5ccc(OCCCN(C)C)c(Br)c5)nn4)cc3)nn2)cc1Br`
HIGH

Categorize the following entry: `CN(C)CCOc1c(Br)cc(CCn2cc(-c3ccc(-c4cn(CCc5cc(Br)c(OCCN(C)C)c(Br)c5)nn4)cc3)nn2)cc1Br`
LOW

Categorize the following entry: `CN(C)CCOc1ccc(-n2cc(-c3ccc(-c4cn(-c5ccc(OCCN(C)C)cc5)nn4)cc3)nn2)cc1`
MEDIUM

---

test: Gravimetry (weight loss), corrosion inhibition; conditions: 2 ppm; mild steel in 1N HCl
The entries below are paired with their reported IE %.
Answer with a number only, understood to be in %.

CN(C)CCCOc1ccc(CCn2cc(-c3ccc(-c4cn(CCc5ccc(OCCCN(C)C)c(Br)c5)nn4)cc3)nn2)cc1Br; 96.44
CN(C)CCOc1ccc(CCn2cc(COCc3cn(CCc4ccc(OCCN(C)C)c(Br)c4)nn3)nn2)cc1Br; 96.52
CN(C)CCOc1ccc(CCn2cc(-c3ccc(-c4cn(CCc5ccc(OCCN(C)C)c(Cl)c5)nn4)cc3)nn2)cc1Cl; 95.98
CN(C)CCCOc1ccc(CCn2cc(-c3cccc(-c4cn(CCc5ccc(OCCCN(C)C)c(Br)c5)nn4)c3)nn2)cc1Br; 97.25
CN(C)CCCOc1ccc(CCn2cc(-c3ccc(-c4cn(CCc5ccc(OCCCN(C)C)c(Cl)c5)nn4)cc3)nn2)cc1Cl; 96.37
CN(C)CCOc1ccc(CCn2cc(CNCc3cn(CCc4ccc(OCCN(C)C)c(Br)c4)nn3)nn2)cc1Br; 92.42
CN(C)CCOc1ccc(-n2cc(-c3ccc(-c4cn(-c5ccc(OCCN(C)C)cc5)nn4)cc3)nn2)cc1; 95.55
CN(C)CCOc1ccc(CCn2cc(CCCCCCc3cn(CCc4ccc(OCCN(C)C)c(Br)c4)nn3)nn2)cc1Br; 96.06
CN(C)CCOc1ccc(CCCn2cc(-c3ccc(-c4cn(CCCc5ccc(OCCN(C)C)c(Br)c5)nn4)cc3)nn2)cc1Br; 96.17
CN(C)CCOc1ccc(CCn2cc(-c3ccc(-c4cn(CCc5ccc(OCCN(C)C)c(Br)c5)nn4)cc3)nn2)cc1Br; 97.73

IE % for `CN(C)CCOc1c(Br)cc(CCn2cc(-c3ccc(-c4cn(CCc5cc(Br)c(OCCN(C)C)c(Br)c5)nn4)cc3)nn2)cc1Br` ?
96.25

IE % for `CN(C)CCCOc1ccc(CCn2cc(-c3ccc(-c4cn(CCc5ccc(OCCCN(C)C)cc5)nn4)cc3)nn2)cc1` ?
96.89

IE % for `CN(C)CCCOc1c(Br)cc(CCn2cc(-c3ccc(-c4cn(CCc5cc(Br)c(OCCCN(C)C)c(Br)c5)nn4)cc3)nn2)cc1Br` ?
96.25

IE % for `CN(C)CCOc1ccc(CCn2cc(-c3ccc(-c4cn(CCc5ccc(OCCN(C)C)cc5)nn4)cc3)nn2)cc1` ?
96.95

IE % for `CN(C)CCCOc1ccc(CCCn2cc(-c3ccc(-c4cn(CCCc5ccc(OCCCN(C)C)c(Br)c5)nn4)cc3)nn2)cc1Br` ?
96.54

---

tested on: Shewanella sp. (TC11); test: Anti-adhesion test, strain TC11; type: cell-based; conditions: read-out: EC50 (effective concentration to inhibit 50% of the adhesion), strain TC11
endpoint-label: EC50
Answer format reminder: number followed by unit.

Answered cases to consult:
COc1ccc(Cn2cc(-c3ccc(-c4cn(Cc5ccc(OC)c(Br)c5)nn4)cc3)nn2)cc1Br [SA8]; 122 µM
CN(C)CCOc1c(Br)cc(CCn2cc(-c3ccc(-c4cn(CCc5cc(Br)c(OCCN(C)C)c(Br)c5)nn4)cc3)nn2)cc1Br [SA33]; 32 µM
CN(C)CCCOc1ccc(CCn2cc(-c3ccc(-c4cn(CCc5ccc(OCCCN(C)C)c(I)c5)nn4)cc3)nn2)cc1I [SA46]; 22.2 µM
Oc1ccc(CCn2cc(-c3ccc(-c4cn(CCc5ccc(O)c(I)c5)nn4)cc3)nn2)cc1I [SA43]; 1.1 µM
CN(C)CCCOc1ccc(CCn2cc(-c3ccc(-c4cn(CCc5ccc(OCCCN(C)C)cc5)nn4)cc3)nn2)cc1 [SA12]; 173 µM

EC50 for CN(C)CCOc1ccc(CCn2cc(-c3ccc(-c4cn(CCc5ccc(OCCN(C)C)c(Br)c5)nn4)cc3)nn2)cc1Br [AS162] ?
12.6 µM

EC50 for CN(C)CCCOc1ccc(CCCn2cc(-c3ccc(-c4cn(CCCc5ccc(OCCCN(C)C)c(Br)c5)nn4)cc3)nn2)cc1Br [SA32] ?
61.1 µM

---

system: Shewanella sp. (TC11); assay: Anti-adhesion test, strain TC11; assay type: cell-based; conditions: read-out: EC50 (effective concentration to inhibit 50% of the adhesion), strain TC11
The entries below are paired with their reported EC50.
Answer with a number only, understood to be in µM.

EC50 for CN(C)CCCOc1ccc(CCn2cc(-c3ccc(-c4cn(CCc5ccc(OCCCN(C)C)c(Br)c5)nn4)cc3)nn2)cc1Br [AS172] ?
15.6

---

test system: Paracoccus sp. (4M6); assay: Anti-adhesion test, strain 4M6; type: cell-based; settings: Paracoccus, read-out: EC50 (effective concentration to inhibit 50% of the adhesion), 4M6
endpoint-label: pEC50
Keep in mind that pEC50 stands for -log10 of concentration in molar terms.

CN(C)CCCOc1ccc(-n2cc(-c3ccc(-c4cn(-c5ccc(OCCCN(C)C)c(Br)c5)nn4)cc3)nn2)cc1Br [SA66]; 4.35
CN(C)CCOc1c(Br)cc(CCn2cc(-c3ccc(-c4cn(CCc5cc(Br)c(OCCN(C)C)c(Br)c5)nn4)cc3)nn2)cc1Br [SA33]; 4.95
CN(C)CCCOc1ccc(CCn2cc(-c3ccc(-c4cn(CCc5ccc(OCCCN(C)C)c(I)c5)nn4)cc3)nn2)cc1I [SA46]; 4.32
CN(C)CCOc1ccc(CCn2cc(-c3ccc(-c4cn(CCc5ccc(OCCN(C)C)c(I)c5)nn4)cc3)nn2)cc1I [SA45]; 4.85
COc1ccc(CCn2cc(CCCc3cn(CCc4ccc(OC)c(Br)c4)nn3)nn2)cc1Br [NT10]; 3.74

Query the reported pEC50 for Paracoccus sp. (4M6); item: CN(C)CCCOc1ccc(CCCn2cc(-c3ccc(-c4cn(CCCc5ccc(OCCCN(C)C)c(Br)c5)nn4)cc3)nn2)cc1Br [SA32]
5.51

Query the reported pEC50 for Paracoccus sp. (4M6); item: CN(C)CCCOc1ccc(CCn2cc(-c3ccc(-c4cn(CCc5ccc(OCCCN(C)C)c(Br)c5)nn4)cc3)nn2)cc1Br [AS172]
5.44

Query the reported pEC50 for Paracoccus sp. (4M6); item: CN(C)CCOc1ccc(CCn2cc(COCc3cn(CCc4ccc(OCCN(C)C)c(Br)c4)nn3)nn2)cc1Br [AS163]
3.84

Query the reported pEC50 for Paracoccus sp. (4M6); item: Oc1ccc(CCn2cc(-c3ccc(-c4cn(CCc5ccc(O)c(I)c5)nn4)cc3)nn2)cc1I [SA43]
4.27

Query the reported pEC50 for Paracoccus sp. (4M6); item: Oc1ccc(CCn2cc(-c3ccc(-c4cn(CCc5ccc(O)c(Br)c5)nn4)cc3)nn2)cc1Br [NT23]
4.22

---

test system: Pseudoalteromonas ulvae (TC14); experiment: Anti-adhesion test, strain TC14; type: cell-based; conditions: Pseudoalteromonas ulvae, 15 h, 200 μM
So basically, if activity at 200 µM comes in under 40% it's yes (1), and if it's 40% or more it's no (0).

Sample answers from the record:
CN(C)CCCOc1ccc(CCn2cc(-c3ccc(-c4cn(CCc5ccc(OCCCN(C)C)cc5)nn4)cc3)nn2)cc1; no (0)
COc1ccc(CCn2cc(COCc3cn(CCc4ccc(OC)c(Br)c4)nn3)nn2)cc1Br; yes (1)
Oc1ccc(CCn2cc(CCCCc3cn(CCc4ccc(O)c(Br)c4)nn3)nn2)cc1Br; no (0)
Oc1ccc(CCn2cc(CCCc3cn(CCc4ccc(O)c(Br)c4)nn3)nn2)cc1Br; no (0)

# TODO verify activity at 200 µM < 40% strictly for this compound: `CN(C)CCCOc1ccc(CCCn2cc(-c3ccc(-c4cn(CCCc5ccc(OCCCN(C)C)c(Br)c5)nn4)cc3)nn2)cc1Br`
yes (1)

# TODO verify activity at 200 µM < 40% strictly for this compound: `CN(C)CCOc1ccc(CCn2cc(-c3ccc(-c4cn(CCc5ccc(OCCN(C)C)c(I)c5)nn4)cc3)nn2)cc1I`
no (0)

# TODO verify activity at 200 µM < 40% strictly for this compound: `COc1ccc(CCn2cc(CCCc3cn(CCc4ccc(OC)c(Br)c4)nn3)nn2)cc1Br`
no (0)

# TODO verify activity at 200 µM < 40% strictly for this compound: `COc1ccc(CCn2cc(CCCCc3cn(CCc4ccc(OC)c(Br)c4)nn3)nn2)cc1Br`
no (0)

# TODO verify activity at 200 µM < 40% strictly for this compound: `CN(C)CCOc1ccc(-n2cc(-c3ccc(-c4cn(-c5ccc(OCCN(C)C)cc5)nn4)cc3)nn2)cc1`
no (0)

# TODO verify activity at 200 µM < 40% strictly for this compound: `Oc1ccc(CCn2cc(-c3cccc(-c4cn(CCc5ccc(O)c(Br)c5)nn4)c3)nn2)cc1Br`
no (0)

# TODO verify activity at 200 µM < 40% strictly for this compound: `CN(C)CCOc1ccc(CCn2cc(-c3ccc(-c4cn(CCc5ccc(OCCN(C)C)c(Br)c5)nn4)cc3)nn2)cc1Br`
yes (1)

# TODO verify activity at 200 µM < 40% strictly for this compound: `CN(C)CCOc1ccc(CCn2cc(COCc3cn(CCc4ccc(OCCN(C)C)c(Br)c4)nn3)nn2)cc1Br`
yes (1)

# TODO verify activity at 200 µM < 40% strictly for this compound: `CN(C)CCCOc1ccc(CCn2cc(-c3ccc(-c4cn(CCc5ccc(OCCCN(C)C)c(Br)c5)nn4)cc3)nn2)cc1Br`
yes (1)

# TODO verify activity at 200 µM < 40% strictly for this compound: `CN(C)CCOc1c(Br)cc(CCn2cc(-c3ccc(-c4cn(CCc5cc(Br)c(OCCN(C)C)c(Br)c5)nn4)cc3)nn2)cc1Br`
yes (1)

# TODO verify activity at 200 µM < 40% strictly for this compound: `CN(C)CCOc1ccc(CCn2cc(CCCCCCc3cn(CCc4ccc(OCCN(C)C)c(Br)c4)nn3)nn2)cc1Br`
no (0)

// provenance: patent US10487071B2
